Dear all, this message contains pKi results, target or system Tyrosine-protein kinase ABL1 (Homo sapiens, UniProt P00519).
pKi: −log10 of the molar value.

| Mol Smiles | pKi |
| --- | --- |
| Cn1c(=O)c(-c2c(Cl)cccc2Cl)cc2cnc(NCc3cccc(N)c3)nc21 | 8.10 |
| Cn1c(=O)c(-c2ccccc2Cl)cc2cnc(NCc3cccc(N)c3)nc21 | 7.22 |
| Cn1c(=O)c(-c2c(Cl)cccc2Cl)cc2cnc(NCc3cccc(NC(=O)CN)c3)nc21 | 7.70 |
| Cn1c(=O)c(-c2c(F)cccc2F)cc2cnc(NCc3cccc(N)c3)nc21 | 7.40 |
